measurement-description: folding stability dG unfold (combined trypsin and chymotrypsin); higher = more stable

| ordered-residues | value-units | censoring-operator | folding stability dG unfold |
| --- | --- | --- | --- |
| SKKKKKKKKKKVIIKIKKDGKEIYIEMTVEEIKELLKKGVKKIEIYSPSEEEKEKIKKLLEEEGVEVEEVSA [r9_810_TrROS_Hall] | kcal/mol | = | 1.78 |
| SAGGSAGGSAKSALDQMKGQKFTFYHPGGEQPVPITIEPDKDDNFVVKFPNKKPYPMPIDDISAGGSAGGSA [r18_169_TrROS] | kcal/mol | < | -1 |
| SAAPTSSGPISLNKPEILTITSVEADPETGTITTPTRVELTEEELDPFNPEIPTFKKKYLDVTLTTPTSSAG [r14_888_JUSTAS] | kcal/mol | < | -1 |
| SAGGSAGGSAGMTLLVKNEDGYLVKIEITEVEVDENGELHLKVKVEVLPPLEEVEEVEEESAGGSAGGSAGG [r17_536_TrROS_Hall] | kcal/mol | = | 1.65 |
| SAMRIEIVRDPETGELVVRVVLPREEAEEAAEELARRLAEAGLEVEVKVVRIEETDGETRVVVEIKVKPSAG [r14_345_TrROS_Hall] | kcal/mol | = | 3.3 |
| SAGGMVLVEPSPDAVVRVIEREGDLARVTVYDPRSGARTVELVPIAPTGKGGVRLETLEVRVLPDAEASAGG [r13_556_JUSTAS] | kcal/mol | = | -0.0934 |
| SAGGGISIVSGDPEITPEKAEAIAAELAAILEEKGFTPKDAELARLPGGRILVTITVDDGKPIVFSLSAGGS [r8_485_TrMRF] | kcal/mol | = | 1.49 |
